List of MIC values.
Test system: Actinobacillus pleuropneumoniae CVCC262
Experiment: MIC by mini broth dilution technique (in vitro susceptibility)
Type: cell-based
Conditions: Actinobacillus pleuropneumoniae CVCC262; broth dilution; read-out: MIC values Actinobacillus pleuropneumoniae CVCC262
Readout: MIC

[
  {
    "Molecule": "CC[C@@H]1OC(=O)[C@H](C)[C@H](OC2C[C@@](C)(OC)[C@](O)(CNCC3CCCCC3)[C@H](C)O2)[C@@H](C)[C@@H](O[C@@H]2O[C@H](C)C[C@H](N(C)C)[C@H]2O)[C@](C)(O)C[C@@H](C)NC[C@@H](C)[C@H](O)[C@]1(C)O (stereo partly shown) [syzx-67]",
    "Readout": "MIC",
    "Measurement": "0.5 µg/mL"
  },
  {
    "Molecule": "CC[C@@H]1OC(=O)[C@H](C)[C@H](OC2C[C@@](C)(OC)[C@](O)(CNC3CCCC3)[C@H](C)O2)[C@@H](C)[C@@H](O[C@@H]2O[C@H](C)C[C@H](N(C)C)[C@H]2O)[C@](C)(O)C[C@@H](C)NC[C@@H](C)[C@H](O)[C@]1(C)O (stereo partly shown) [syzx-30]",
    "Readout": "MIC",
    "Measurement": "0.5 µg/mL"
  },
  {
    "Molecule": "CC[C@@H]1OC(=O)[C@H](C)[C@H](OC2C[C@@](C)(OC)[C@](O)(CNCCOC)[C@H](C)O2)[C@@H](C)[C@@H](O[C@@H]2O[C@H](C)C[C@H](N(C)C)[C@H]2O)[C@](C)(O)C[C@@H](C)NC[C@@H](C)[C@H](O)[C@]1(C)O (stereo partly shown) [syzx-25]",
    "Readout": "MIC",
    "Measurement": "16 µg/mL"
  },
  {
    "Molecule": "CC[C@@H]1OC(=O)[C@H](C)[C@H](OC2C[C@@](C)(OC)[C@](O)(CNCC3CC3)[C@H](C)O2)[C@@H](C)[C@@H](O[C@@H]2O[C@H](C)C[C@H](N(C)C)[C@H]2O)[C@](C)(O)C[C@@H](C)NC[C@@H](C)[C@H](O)[C@]1(C)O (stereo partly shown) [syzx-17]",
    "Readout": "MIC",
    "Measurement": "2 µg/mL"
  }
]
